IC50 listing for selected molecules.
- TARGET_DESC: recombinant human PDE5 (Homo sapiens)
- PROCEDURE_SUMMARY: Inhibitory effect on cGMP-PDE (PDE5 IC50), one-step assay adapted from Wells et al.
- CONDITIONS_USED: 0.15 μM 8-[H3]-cGMP, 30 minutes incubation, 2% DMSO
Kindly provide the numeric value in nM only, without the unit symbol.

Illustrative cases are given below, each with its answer.
Query block: Supply recorded IC50 for CC(C)C[C@H]1c2[nH]c3ccccc3c2C[C@H]2C(=O)N(C)CC(=O)N21 (racemic) [Example 19] here.
Result block: 4800

Query block: Supply recorded IC50 for COC[C@@H]1c2[nH]c3ccccc3c2C[C@@H]2C(=O)N(C)CC(=O)N21 [Example 15] here.
Result block: 333

***
Query block: Supply recorded IC50 for CN1CC(=O)N2[C@H](c3cc4ccccc4o3)c3[nH]c4ccccc4c3C[C@H]2C1=O [Example 2] here.
Result block: 8730

Query block: Supply recorded IC50 for COCOC[C@@H]1c2[nH]c3ccccc3c2C[C@@H]2C(=O)N(C)CC(=O)N21 [Example 18] here.
Result block: 195

* * *

- TARGET_DESC: recombinant human PDE5 (Homo sapiens)
- PROCEDURE_SUMMARY: Inhibitory effect on cGMP-PDE (PDE5 IC50), one-step assay adapted from Wells et al.
- CONDITIONS_USED: 0.15 μM 8-[H3]-cGMP, 30 minutes incubation, 2% DMSO
IC50 listing for selected compounds.
Kindly provide the numeric value in nM only, without the unit symbol.

Illustrative cases are given below, each with its answer.
Query block: Answer with IC50 of Cc1c([C@@H]2c3[nH]c4ccccc4c3C[C@@H]3C(=O)N(C)CC(=O)N23)sc2ccccc12 measured for recombinant human PDE5 (Homo sapiens).
Result block: 1

Query block: Answer with IC50 of Cc1c([C@H]2c3[nH]c4ccccc4c3C[C@@H]3C(=O)N(C)CC(=O)N23)sc2ccccc12 measured for recombinant human PDE5 (Homo sapiens).
Result block: 1570

Query block: Answer with IC50 of CN1CC(=O)N2[C@H](c3cc4ccoc4s3)c3[nH]c4ccccc4c3C[C@@H]2C1=O measured for recombinant human PDE5 (Homo sapiens).
Result block: 12

# next compound below
Query block: Answer with IC50 of CN1CC(=O)N2[C@H](c3cc4ccccc4o3)c3[nH]c4ccccc4c3C[C@@H]2C1=O measured for recombinant human PDE5 (Homo sapiens).
Result block: 16

* * *

melting point listing for selected molecules.

Illustrative cases are given below, each with its answer.
Query block: Supply recorded melting point for COCOC[C@@H]1c2[nH]c3ccccc3c2C[C@@H]2C(=O)N(C)CC(=O)N21 [Example 18] here.
Result block: 180 to 185 °C

Query block: Supply recorded melting point for CN1CC(=O)N2[C@H](Cc3c([nH]c4ccccc34)[C@H]2COCc2ccccc2)C1=O [Example 16] here.
Result block: 181 to 187 °C

Query block: Supply recorded melting point for Cc1c([C@H]2c3[nH]c4ccccc4c3C[C@H]3C(=O)N(C)CC(=O)N23)sc2ccccc12 [Example 5] here.
Result block: 230 to 234 °C

Query block: Supply recorded melting point for CN1CC(=O)N2[C@H](c3cc4ccccc4o3)c3[nH]c4ccccc4c3C[C@@H]2C1=O [Example 3] here.
Result block: 265 to 268 °C

# next molecule below
Query block: Supply recorded melting point for CN1CC(=O)N2[C@H](c3cc4ccccc4o3)c3[nH]c4ccccc4c3C[C@H]2C1=O [Example 2] here.
Result block: 195 to 198 °C

* * *

- TARGET_DESC: recombinant human PDE5 (Homo sapiens, UniProt O76074)
- PROCEDURE_SUMMARY: Inhibitory effect on cGMP-PDE (PDE5 IC50), one-step assay adapted from Wells et al.
- CONDITIONS_USED: 0.15 μM 8-[H3]-cGMP, 30 minutes incubation, 2% DMSO
pIC50: −log10 of the molar value.
Label y when pIC50 is at or above 7; otherwise label n.

Below, 3 molecules whose answers are already recorded.
Query block: Does Cc1c([C@@H]2c3[nH]c4ccccc4c3C[C@H]3C(=O)N(C)CC(=O)N23)sc2ccccc12 [Example 6] have a reported pIC50 of at least 7?
Result block: y

Query block: Does CN1CC(=O)N2[C@@H](C3CC=CCC3)c3[nH]c4ccccc4c3C[C@H]2C1=O (stereo partly shown) [Example 21] have a reported pIC50 of at least 7?
Result block: n

Query block: Does CN1CC(=O)N2[C@@H](c3cc4ccccc4o3)c3[nH]c4ccccc4c3C[C@@H]2C1=O [Example 4] have a reported pIC50 of at least 7?
Result block: n

***
Query block: Does Cc1c([C@H]2c3[nH]c4ccccc4c3C[C@H]3C(=O)N(C)CC(=O)N23)sc2ccccc12 [Example 5] have a reported pIC50 of at least 7?
Result block: y

Query block: Does CN1CC(=O)N2[C@H](Cc3c([nH]c4ccccc34)[C@H]2COCc2ccccc2)C1=O [Example 16] have a reported pIC50 of at least 7?
Result block: n

Query block: Does CN1CC(=O)N2[C@H](Cc3c([nH]c4ccccc34)[C@H]2CO)C1=O [Example 17] have a reported pIC50 of at least 7?
Result block: n
